Experiment: Bleach stability index (BSI) test: % AvO loss of perfumed bleach product in accelerated aging, by iodometric titration
Conditions: perfume ingredient at 0.2% via AE3S in PAP finished product, pH 3.8; 2 weeks at 40°C; BSI of at least 80% = not more than 20% AvO loss
recorded endpoint: bleach stability index (BSI)

CCCC(C)C=Nc1ccccc1C(=O)OC (centres unmarked); at least 80%
C=CC(=C)CCCC(C)(C)OC(C)=O [Myrcenyl acetate crude]; at least 80%
CC(C)=CCCC(C)CCO (centres unmarked); at least 80%
CC(C)=CCCC(C)CC=O (centres unmarked); at least 80%
CC1(C)CCCC2=C1CC(C=O)CC2 (centres unmarked); at least 80%

Record summary for OCC=Cc1ccccc1 : reported bleach stability index (BSI) = at least 80%

Given item CCCCCCC=CC(=O)OC [Beauvertate, methyl-2-nonenoate] , the value recorded as its bleach stability index (BSI) is at least 80%

Reported bleach stability index (BSI) ( CC(=O)OCCC(C)CCC=C(C)C (centres unmarked) [citronellyl acetate] ) = at least 80%

Recorded result, CC1=CCC(CC#N)C1(C)C (centres unmarked) , bleach stability index (BSI): at least 80%

Summary for this molecule, CCOC(=O)C1=C(C)C=CCC1(C)C [Ethyl safranate] : bleach stability index (BSI) is at least 80%

For OC/C=C/c1ccccc1 the molecule record lists bleach stability index (BSI) as at least 80%

So for CC=CC(=O)OC(C)CC(C)C (centres unmarked) [Frutinat.exp, 4-methyl-pentan-2-ol 2-butenoate] , the logged bleach stability index (BSI) turned out to be at least 80%

Item: C=C(C=O)C(C)CCC=C(C)C (centres unmarked) | bleach stability index (BSI): at least 80%

Noted for CC(=O)/C=C/C1C(C)=CCCC1(C)C (centres unmarked) : its bleach stability index (BSI) reads at least 80%

bleach stability index (BSI) in this record for O=c1ccc2ccccc2o1 : at least 80%
